system.name: Beta-2 adrenergic receptor (Homo sapiens) (UniProt P07550)
Sequence (P07550 whole entry, looked up): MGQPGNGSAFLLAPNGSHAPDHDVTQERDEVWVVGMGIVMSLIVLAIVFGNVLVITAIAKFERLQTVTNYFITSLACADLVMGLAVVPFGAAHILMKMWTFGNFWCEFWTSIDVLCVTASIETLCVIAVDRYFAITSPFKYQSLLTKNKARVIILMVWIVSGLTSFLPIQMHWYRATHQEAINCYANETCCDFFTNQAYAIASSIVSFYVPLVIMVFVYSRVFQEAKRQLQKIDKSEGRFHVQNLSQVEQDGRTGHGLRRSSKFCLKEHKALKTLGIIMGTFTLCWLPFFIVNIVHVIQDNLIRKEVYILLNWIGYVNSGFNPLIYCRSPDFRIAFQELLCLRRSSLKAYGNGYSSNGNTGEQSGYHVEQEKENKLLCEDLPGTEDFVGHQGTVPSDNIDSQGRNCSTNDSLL
condition.parameters: CHO
Description: Agonistic potency against BETA2-AR expressed in CHO cells by using cAMP-RIA assay
Below, each of the compounds is paired with its reported pK value.
// response body must contain only the number

Examples from the recorded data:
compound="COc1c(I)cc(CC2NCCc3cc(O)ccc32)cc1I (centres undefined)" experimental_readout=pK measured=6.87
compound="COc1c(I)cc(CC2NCCc3c2ccc(O)c3I)cc1I (centres undefined)" experimental_readout=pK measured=6.77
compound="COc1c(I)cc(CC2NCCc3cc(O)c(O)cc32)cc1I (centres undefined)" experimental_readout=pK measured=8.84

Turning to the following compound.
Input line: # query: pK of entry COc1cc(C[C@@H]2NCCc3cc(O)c(O)cc32)cc(OC)c1OC
Output line: 8.33

---

system.name: Beta-3 adrenergic receptor (Homo sapiens)
method.description: Intrinsic activity against Beta3-AR expressed in CHO cells in cAMP-RIA assay
Assay type: functional, cell-based
Threshold check on IA: strictly below 30 is Criterion met; on or above 30 is Criterion not met.

Consider the following illustrative entries.
compound="COc1c(I)cc(CC2NCCc3cc(O)c(I)cc32)cc1I (centres undefined)" answer_label="Criterion not met"
compound="COc1c(I)cc(CC2NCCc3c2cc(Br)c(O)c3Br)cc1I (centres undefined)" answer_label="Criterion met"

For the next question, use this compound.
Input line: Is IA of COc1c(I)cc(CC2NCCc3ccccc32)cc1I (centres undefined) strictly below 30?
Output line: Criterion not met

---

IA for assorted compounds
system.name: Beta-2 adrenergic receptor (Homo sapiens) (UniProt P07550)
condition.parameters: CHO
Description: Intrinsic activity against BETA2-AR expressed in CHO cells in cAMP-RIA assay
When you answer, write just the number.

Completed entries (count: 4):
compound="COc1c(I)cc(CC2NCCc3c2ccc(O)c3Br)cc1I (centres undefined)" system_name="Beta-2 adrenergic receptor (Homo sapiens) (UniProt P07550)" measured=26
compound="COc1c(I)cc(CC2NCCc3c2cc(Br)c(O)c3Br)cc1I (centres undefined)" system_name="Beta-2 adrenergic receptor (Homo sapiens) (UniProt P07550)" measured=3
compound="COc1c(I)cc(CC2NCCc3ccccc32)cc1I (centres undefined)" system_name="Beta-2 adrenergic receptor (Homo sapiens) (UniProt P07550)" measured=15
compound="COc1c(I)cc(CC2NCCc3c2cc(I)c(O)c3I)cc1I (centres undefined)" system_name="Beta-2 adrenergic receptor (Homo sapiens) (UniProt P07550)" measured=6

Please examine the following record next.
Input line: Can you look up the measured IA of COc1c(I)cc(CC2NCCc3cc(O)c(O)cc32)cc1I (centres undefined) for me?
Output line: 52

---

system.name: Beta-3 adrenergic receptor (Homo sapiens) (UniProt P13945)
Sequence (P13945 whole entry, looked up): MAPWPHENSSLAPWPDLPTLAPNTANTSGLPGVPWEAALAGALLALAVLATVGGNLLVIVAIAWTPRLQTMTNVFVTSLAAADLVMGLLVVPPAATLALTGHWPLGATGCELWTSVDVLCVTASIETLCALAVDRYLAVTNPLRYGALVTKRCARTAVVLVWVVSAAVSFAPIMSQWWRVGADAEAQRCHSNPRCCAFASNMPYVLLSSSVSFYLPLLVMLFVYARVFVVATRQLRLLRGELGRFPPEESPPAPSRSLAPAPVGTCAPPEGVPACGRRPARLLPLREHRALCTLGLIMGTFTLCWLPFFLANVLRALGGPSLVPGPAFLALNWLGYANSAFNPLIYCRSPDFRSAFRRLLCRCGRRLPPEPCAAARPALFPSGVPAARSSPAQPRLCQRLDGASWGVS
method.description: Agonistic potency against Beta3-AR expressed in CHO cells by using cAMP-RIA assay
Format: functional, cell-based
experimental.readout: pK
Answer with a bare number; do not write a unit.

Completed entries (count: 3):
compound=COc1cc(C[C@@H]2NCCc3cc(O)c(O)cc32)cc(OC)c1OC system_name="Beta-3 adrenergic receptor (Homo sapiens) (UniProt P13945)" experimental_readout=pK measured=8.6
compound="COc1c(I)cc(CC2NCCc3ccccc32)cc1I (stereo unspecified)" system_name="Beta-3 adrenergic receptor (Homo sapiens) (UniProt P13945)" experimental_readout=pK measured=8.2
compound="COc1c(I)cc(CC2NCCc3c2ccc(O)c3Br)cc1I (stereo unspecified)" system_name="Beta-3 adrenergic receptor (Homo sapiens) (UniProt P13945)" experimental_readout=pK measured=8.25

Input line: Using the record for COc1c(I)cc(CC2NCCc3cc(O)c(I)cc32)cc1I (stereo unspecified) , report its pK.
Output line: 7.92

Input line: So what's the measured pK for this one? COc1c(I)cc(CC2NCCc3cc(O)c(O)cc32)cc1I (stereo unspecified)
Output line: 8.76

Input line: Which pK reading was recorded for the compound COc1c(I)cc(CC2NCCc3cc(O)ccc32)cc1I (stereo unspecified) ?
Output line: 7.88
